B1: CPEB3 Ribozyme (parent)
chain: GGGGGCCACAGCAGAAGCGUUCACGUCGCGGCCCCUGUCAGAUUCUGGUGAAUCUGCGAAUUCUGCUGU

# Variants of: B1
# protocol-description: self-cleavage, relative activity (ratio to wild type); higher = more cleavage; co-transcriptional
Labels assigned by self-cleavage range: class 0 (below 0.2), class 1 (0.2 to below 0.5), class 2 (0.5 or more)

Some entries whose results are on file:
[
  {
    "mutation-key": "U44A U61A",
    "discrete-label": "class 2"
  },
  {
    "mutation-key": "C24G A40G",
    "discrete-label": "class 1"
  },
  {
    "mutation-key": "G48U C63G",
    "discrete-label": "class 2"
  },
  {
    "mutation-key": "G17C G31C",
    "discrete-label": "class 0"
  },
  {
    "mutation-key": "C35A U55C",
    "discrete-label": "class 1"
  },
  {
    "mutation-key": "C29G A40G",
    "discrete-label": "class 1"
  }
]

Ask: Which class holds G2C C35A ?
Result: class 0

Ask: Then G50A G65U ?
Result: class 2

Ask: Then C63A U64C ?
Result: class 2
